Sourced from patent US20210403601A1

# tested.system: T1, Taq DNA polymerase (Thermus aquaticus, UniProt P19821 1-832)
# T1 construct: also called Taq enzyme; Taq DNA enzyme
# T1 sequence (P19821 whole entry): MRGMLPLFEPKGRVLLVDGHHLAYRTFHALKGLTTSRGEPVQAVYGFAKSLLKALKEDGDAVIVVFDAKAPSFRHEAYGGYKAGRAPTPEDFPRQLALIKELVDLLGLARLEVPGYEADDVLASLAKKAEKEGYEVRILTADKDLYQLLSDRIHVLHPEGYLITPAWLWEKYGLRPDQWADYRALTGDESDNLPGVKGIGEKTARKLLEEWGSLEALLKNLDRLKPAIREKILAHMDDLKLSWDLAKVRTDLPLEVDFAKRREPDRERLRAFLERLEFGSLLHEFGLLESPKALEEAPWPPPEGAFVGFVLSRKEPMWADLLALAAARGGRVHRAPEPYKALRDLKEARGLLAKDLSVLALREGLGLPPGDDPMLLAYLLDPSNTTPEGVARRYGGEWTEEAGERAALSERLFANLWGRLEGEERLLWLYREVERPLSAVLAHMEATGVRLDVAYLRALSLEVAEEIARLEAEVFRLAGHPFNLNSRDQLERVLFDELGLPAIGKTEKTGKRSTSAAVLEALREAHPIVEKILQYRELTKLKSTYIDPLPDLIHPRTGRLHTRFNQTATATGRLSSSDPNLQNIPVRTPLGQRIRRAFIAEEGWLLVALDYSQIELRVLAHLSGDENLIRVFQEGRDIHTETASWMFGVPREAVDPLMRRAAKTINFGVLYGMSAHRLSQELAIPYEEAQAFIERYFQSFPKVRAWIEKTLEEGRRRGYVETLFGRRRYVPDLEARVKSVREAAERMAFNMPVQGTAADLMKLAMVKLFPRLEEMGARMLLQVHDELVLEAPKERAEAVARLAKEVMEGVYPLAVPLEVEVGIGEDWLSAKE
# protocol.text: AMC sensor, antibody immobilised
attribute.measured: koff
Returns: string containing the number followed by the unit.

>>> experimental_result("Mutation 1-12 (antibody, V domains shown, Mutation 1 background; CDRs built) VH: QVQLQQPGAELVKPGASVRLSCQTSVDTFSTYYIYWVKQRPGEGLEWIGGVNPTSNPVFNEKFKSKATLTVDTSSSTAYMQLSSLTSVDSAVYYCTRSVLRRGYYFDYWGQGTALTVSS VL: DIQMTQTTSSLSASLGDRVTISCRASQDIQNYVNWYQQKPDGTIKLLIYYTSRLHSGIPSRFSGSGSGTDYSLTIANLEQEDIATYFCQQDDTVPVTFGAGTKVELKR")
"2.05e-06 s⁻¹"

Please find the next binder below.
Name the reported koff value associated with the binder Mutation 1-42 (antibody, V domains shown, Mutation 1 background; CDRs built) VH: QVQLQQPGAELVKPGASVRLSCQTSVETFSTYYIYWVKQRPGEGLEWIGGINPTSNPVFNEKFKSKATLTVDTSSSTAYMQLSSLTSVDSAVYYCTRSLLRRGYYFDYWGQGTALTVSS VL: DIQMTQTTSSLSASLGDRVTISCRASQDIQNYVNWYQQKPDGTIKLLIYYTSRLQSGLPSRFSGSGSGTDYSLTIANLEQEDIATYFCQQDDTLPLTFGAGTKVELKR
3.75e-05 s⁻¹
